Experiment: Selectivity index, ratio of IC50 for cytotoxicity against human NFF cells to the IC50 for antiplasmodial activity against Plasmodium falciparum 3D7 infected in human erythrocytes
Assay type: toxicity, cell-based
Conditions: read-out: Ratio IC50
value-kind: selectivity ratio

stdin: So what does the record say about selectivity ratio for `C=CC1=C(C)C2=NC/1=C\C1=NC(=C\C3=C(C)C4=C(O)[C@H](C(=O)OC)/C(=C5/N/C(=C\2)[C@@H](C)[C@@H]5CCC(=O)OC)C4=N3)/C(CC)=C1C` ?
stdout: > 11

---

System: Plasmodium falciparum
Experiment: Antiplasmodial activity against synchronized ring stage Plasmodium falciparum 3D7 infected in human erythrocytes assessed as inhibition of parasite proliferation preincubated for 48 hrs followed by [3H]-hypoxanthine incorporation and measured after 24 hrs by microbeta liquid scintillation counter analysis
Type: functional, organism-based
pIC50: −log10 of the molar value.
Assign pIC50 to each entry below.

> print(dat)
                                   compound  value.kind  result
1  COc1ccc(-c2cc(=O)c3c(O)cc(O)cc3o2)cc1 [ACACETIN]       pIC50  > 4.40
2  CC(=O)OC[C@@]12[C@@H](OC(C)=O)C[C@@H](C)[C@](C)(CCC3CCOC3=O)[C@H]1CCC[C@@H]2C=O (stereo partly drawn)       pIC50    4.56
3  CC1(C)C[C@H](O)C[C@@]2(C)OC(=O)C=C12 [LOLIOLIDE]       pIC50  < 4.30
4  CC(=O)OC[C@@]12[C@@H](OC(C)=O)C[C@@H](C)[C@](C)(CCC3CCOC3=O)[C@H]1CCC[C@@]2(O)CCl (stereo partly drawn)       pIC50  < 4.30
5  CC(=O)OC[C@@]12[C@@H](OC(C)=O)C[C@@H](C)[C@](C)(CCC3CCOC3=O)[C@H]1CCC[C@@]21CO1 (stereo partly drawn)       pIC50  < 4.30

Look up pIC50 for the entries below, preserving their order.
1. CC1(C)CCC[C@@]2(C)C1=C(O)C(=O)c1c2c(O)c2oc(CO)cc2c1O
2. C=CC1=C(C)C2=NC/1=C\C1=NC(=C\C3=C(C)C4=C(O)[C@H](C(=O)OC)/C(=C5/N/C(=C\2)[C@@H](C)[C@@H]5CCC(=O)OC)C4=N3)/C(CC)=C1C
3. CC1(C)CCC[C@]2(C)c3c(c(O)c4cc(CO)oc4c3O)C(=O)C[C@@H]12

stdout:
1: 4.52; 2: 5.35; 3: < 4.40

---

Assay: Cytotoxicity against human NFF cells assessed as growth inhibition incubated for 72 hrs by SRB assay
Format: toxicity, cell-based
value-kind: IC50 at 72 h (µM)
One number for each entry, in µM.

stdin: So what does the record say about IC50 at 72 h for CCN(CC)CCCC(C)Nc1ccnc2cc(Cl)ccc12 (configuration not stated) ?
stdout: 31.7
